experiment: In vitro kappa-opioid receptor agonist activity in isolated rabbit vas deferens assay
Item-by-item account of IC50
measured-attribute: IC50 (nM)

compound: O=C(Cc1ccc(Cl)c(Cl)c1)N1CCc2c(O)cccc2C1CN1CCC(O)C1 (stereo not given)
measured-attribute: IC50
numeric-result: 3.8
//
compound: O=C(Cc1ccc(Cl)c(Cl)c1)N1CCc2occc2C1CN1CCCC1 (stereo not given)
measured-attribute: IC50
numeric-result: 15
//
compound: Cc1cc2c(o1)CCN(C(=O)Cc1ccc(Cl)c(Cl)c1)C2CN1CCC(O)C1 (stereo not given)
measured-attribute: IC50
numeric-result: 0.39
//
compound: O=C(Cc1ccc(Cl)c(Cl)c1)N1CCc2occc2C1CN1CC=CCC1 (stereo not given)
measured-attribute: IC50
numeric-result: 1.4
//
compound: O=C1CCN(CC2c3ccoc3CCN2C(=O)Cc2ccc(Cl)c(Cl)c2)C1 (stereo not given)
measured-attribute: IC50
numeric-result: 6
//
compound: CN(C)CC1c2ccoc2CCN1C(=O)Cc1ccc(Cl)c(Cl)c1 (stereo not given)
measured-attribute: IC50
numeric-result: 22
//
compound: O=C(Cc1ccc(Cl)c(Cl)c1)N1CCc2occc2[C@H]1CN1CC[C@@H](O)C1
measured-attribute: IC50
numeric-result: 3.4
//
compound: O=C(Cc1ccc(Cl)c(Cl)c1)N1CCc2c(O)cccc2C1CN1CCCC1 (stereo not given)
measured-attribute: IC50
numeric-result: 0.11
//
compound: O=C(Cc1ccc(Cl)c(Cl)c1)N1CCc2occc2C1CN1CCC(O)C1 (stereo not given)
measured-attribute: IC50
numeric-result: 2.7
//
compound: O=C(Cc1ccc(Cl)c(Cl)c1)N1CCc2occc2[C@@H]1CN1CC[C@H](O)C1
measured-attribute: IC50
numeric-result: 1.1

Data origin: BindingDB's records for doi:10.1021/jm00040a004
